test system: M. mycetomatis strain mm55; conditions: primary screen, metabolic activity vs growth control; 96 h, 2 µM; inhibitor
Hit rate of the full screen: of about 5,300 compounds, about 130 (2.5%) showed an effect of 50% or more. This is one part of a sample in which strong results are shown more often than they occur.

>  <compound>
C[C@@H](c1ncncc1F)[C@](O)(Cn1cncn1)c1ccc(F)cc1F

>  <systemName>
M. mycetomatis strain mm55

>  <% viability>
2.12%

$$$$
>  <compound>
C[C@H](NC(=O)C(C)(C)Oc1ccc(C(F)(F)F)cn1)[C@@H](Cc1ccc(Cl)cc1)c1cccc(C#N)c1

>  <systemName>
M. mycetomatis strain mm55

>  <% viability>
72.16%

$$$$
>  <compound>
COC[C@H](NC(=O)c1cnc(C)s1)C(=O)N[C@@H](COC)C(=O)N[C@@H](Cc1ccccc1)C(=O)C1(C)CO1 (stereo partly shown)

>  <systemName>
M. mycetomatis strain mm55

>  <% viability>
101.4%

$$$$
>  <compound>
O=C(CNC(=O)c1cccc(C(F)(F)F)c1)N[C@@H]1CCN(Cc2ccc(Cl)cc2)C1

>  <systemName>
M. mycetomatis strain mm55

>  <% viability>
76.98%

$$$$
>  <compound>
C[C@@H](c1nc(-c2ccc(C#N)cc2)cs1)[C@](O)(Cn1cncn1)c1ccc(F)cc1F

>  <systemName>
M. mycetomatis strain mm55

>  <% viability>
0.9972%

$$$$
>  <compound>
O=C1c2cccnc2OC[C@@H]2CCCN12

>  <systemName>
M. mycetomatis strain mm55

>  <% viability>
83.51%

$$$$
>  <compound>
O=C1O[C@@H](CO)[C@H](O)[C@@H](O)[C@@H]1O

>  <systemName>
M. mycetomatis strain mm55

>  <% viability>
67.77%

$$$$
